B1: Pistol ribozyme (parent)
chain: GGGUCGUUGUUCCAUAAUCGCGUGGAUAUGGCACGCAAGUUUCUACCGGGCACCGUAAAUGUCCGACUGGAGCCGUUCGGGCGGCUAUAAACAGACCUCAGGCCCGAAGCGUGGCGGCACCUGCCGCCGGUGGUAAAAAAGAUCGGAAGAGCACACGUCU

- Variants of: B1
- procedure.summary: aptazyme ON/OFF ratio, guanine; higher = stronger switching; co-transcriptional cleavage with and without guanine
Below, each entry is listed alongside its reported aptazyme ON/OFF ratio.
In your answer, state the number alone without any accompanying words.

Please review the following examples before continuing.
U7A U8A G9U U11C C12U C13U
1.32
U7G U8A G9U U10G U11G C12G C13U
1.05

Exercise: Recorded aptazyme ON/OFF ratio of U7A G9A U10C U11G C13A , please.
Key: 1.22

Exercise: Recorded aptazyme ON/OFF ratio of U8G U10G C12G C13U , please.
Key: 1.35

Exercise: Recorded aptazyme ON/OFF ratio of G9U U10G U11G C12G C13A , please.
Key: 1.25

Exercise: Recorded aptazyme ON/OFF ratio of U7A U8C U10C C12U C13U , please.
Key: 1.38
